target: HDAC3 (Homo sapiens); construct: purchased Reaction Biology Corporation (assay run by the CRO); test: HDAC3 inhibition, full IC50 measurement (Reaction Biology; fluorogenic p53 peptide RHKK(Ac)AMC); assay type: biochemical; conditions: Conc. 1.11E-06 M, t2
Peptide text beside a SMILES is read from it.
Property name: HDAC3 activity raw data (signal)

Sample answers from the record:
| Compound | Test target | HDAC3 activity raw data (signal) |
| --- | --- | --- |
| C[C@H](O)[C@H]1NC(=O)[C@H](Cc2c[nH]c3ccccc23)NC(=O)[C@H](CCCCCS)NC(=O)[C@H](CCCCN)NC(=O)[C@@H](CC(=O)O)NC(=O)[C@@H](CCCCN)NC(=O)[C@@H](CO)NC(=O)[C@H](CC(N)=O)NC(=O)[C@H](CC(=O)O)NC1=O [des2.1.0, SHA-Trp-dThr-Asp-Asn-dSer-dLys-dAsp-Lys] (HELM PEPTIDE1{D.N.[dS].[dK].[dD].K.[O=C([C@H](CCCCCS)N[*:1])[*:2]].W.[dT]}$PEPTIDE1,PEPTIDE1,1:R1-9:R2$$$V2.0) | HDAC3 (Homo sapiens) | 96957 |
| CC(C)C[C@H]1NC(=O)[C@H](Cc2c[nH]c3ccccc23)NC(=O)[C@H](CCCCCS)NC(=O)[C@@H](Cc2ccc(O)cc2)NC(=O)[C@@H](C(C)C)NC(=O)[C@H](Cc2c[nH]cn2)NC(=O)CNC(=O)CNC(=O)[C@@H](CO)NC1=O [des2.2.0, SHA-Trp-dLeu-dSer-Gly-Gly-His-dVal-dTyr] (HELM PEPTIDE1{G.G.H.[dV].[dY].[O=C([C@H](CCCCCS)N[*:1])[*:2]].W.[dL].[dS]}$PEPTIDE1,PEPTIDE1,1:R1-9:R2$$$V2.0) | HDAC3 (Homo sapiens) | 1016072 |
| CC(C)[C@@H]1NC(=O)[C@H](CCCNC(=N)N)NC(=O)[C@@H](CC(=O)O)NC(=O)[C@H](CO)NC(=O)[C@@H](CO)NC(=O)[C@@H](CCC(=O)O)NC(=O)[C@H](Cc2ccc(O)cc2)NC(=O)[C@H](CCCCCS)NC1=O [des4.2.0, SHA-Tyr-dGlu-dSer-Ser-dAsp-Arg-Val] (HELM PEPTIDE1{R.V.[O=C([C@H](CCCCCS)N[*:1])[*:2]].Y.[dE].[dS].S.[dD]}$PEPTIDE1,PEPTIDE1,1:R1-8:R2$$$V2.0) | HDAC3 (Homo sapiens) | 163740 |
| NCCCC[C@H]1NC(=O)[C@H](CCC(N)=O)NC(=O)[C@H](CCC(=O)O)NC(=O)[C@@H]2CCCN2C(=O)[C@H](CC(N)=O)NC(=O)[C@H](CCCCCS)NC(=O)CNC(=O)[C@H](Cc2c[nH]c3ccccc23)NC1=O [des1.1.1, SHA-Asn-Pro-Glu-Gln-dLys-Trp-Gly] (HELM PEPTIDE1{E.Q.[dK].W.G.[O=C([C@H](CCCCCS)N[*:1])[*:2]].N.P}$PEPTIDE1,PEPTIDE1,1:R1-8:R2$$$V2.0) | HDAC3 (Homo sapiens) | 152988 |

Provide one value: measured HDAC3 activity raw data (signal) of CSCC[C@H]1NC(=O)[C@@H](CO)NC(=O)[C@H](CC(N)=O)NC(=O)[C@H](CC(=O)O)NC(=O)[C@@H]([C@H](C)O)NC(=O)[C@H](Cc2c[nH]c3ccccc23)NC(=O)[C@H](CCCCCS)NC(=O)[C@H](CCCCN)NC(=O)[C@@H](CC(=O)O)NC1=O [des2.1.1, SHA-Trp-dThr-Asp-Asn-dSer-dMet-dAsp-Lys] (HELM PEPTIDE1{D.N.[dS].[dM].[dD].K.[O=C([C@H](CCCCCS)N[*:1])[*:2]].W.[dT]}$PEPTIDE1,PEPTIDE1,1:R1-9:R2$$$V2.0)
54678

====

target: HDAC3 (Homo sapiens, UniProt O15379); construct: purchased Reaction Biology Corporation (assay run by the CRO); experiment: HDAC3 inhibition, full IC50 measurement (Reaction Biology; fluorogenic p53 peptide RHKK(Ac)AMC); type: biochemical; conditions: Conc. 5.08E-10 M, t2
Sequence (O15379 whole entry): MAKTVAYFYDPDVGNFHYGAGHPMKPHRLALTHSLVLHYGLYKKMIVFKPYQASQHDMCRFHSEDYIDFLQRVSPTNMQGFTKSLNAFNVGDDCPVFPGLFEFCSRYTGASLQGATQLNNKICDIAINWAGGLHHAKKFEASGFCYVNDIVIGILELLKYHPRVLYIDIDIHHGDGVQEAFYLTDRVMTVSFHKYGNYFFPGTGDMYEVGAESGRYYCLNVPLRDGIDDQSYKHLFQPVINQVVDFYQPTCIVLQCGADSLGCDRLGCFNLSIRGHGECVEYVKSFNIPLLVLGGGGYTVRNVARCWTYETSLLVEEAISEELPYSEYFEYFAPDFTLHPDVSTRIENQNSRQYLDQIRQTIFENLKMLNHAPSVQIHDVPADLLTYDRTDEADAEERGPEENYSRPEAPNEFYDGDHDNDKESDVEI
Sequence (Q9Y618 395-489 partner limits assumed): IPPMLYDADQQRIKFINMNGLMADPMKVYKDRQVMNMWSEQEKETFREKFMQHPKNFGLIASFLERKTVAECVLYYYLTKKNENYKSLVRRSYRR
Peptide text beside a SMILES is read from it.
Property name: HDAC3 activity raw data (signal)
Just the number, please, no unit attached.

// worked examples, HDAC3 activity raw data (signal) included
| Compound | HDAC3 activity raw data (signal) |
| --- | --- |
| N=C(N)NCCC[C@H]1NC(=O)[C@@H]2CCCN2C(=O)[C@H](CO)NC(=O)[C@@H](Cc2c[nH]cn2)NC(=O)[C@H](CCCCCS)NC(=O)[C@H](CCCCN)NC(=O)[C@H](Cc2ccc(O)cc2)NC(=O)[C@H]2CCCN2C(=O)[C@@H](CCC(N)=O)NC1=O [des3.1.0, SHA-dHis-Ser-Pro-dArg-dGln-dPro-Tyr-Lys] (HELM PEPTIDE1{K.[O=C([C@H](CCCCCS)N[*:1])[*:2]].[dH].S.P.[dR].[dQ].[dP].Y}$PEPTIDE1,PEPTIDE1,1:R1-9:R2$$$V2.0) | 1013267 |
| C[C@H](O)[C@H]1NC(=O)[C@H](Cc2c[nH]c3ccccc23)NC(=O)[C@H](CCCCCS)NC(=O)[C@H](CCCCN)NC(=O)[C@@H](CC(=O)O)NC(=O)[C@@H](CCCCN)NC(=O)[C@@H](CO)NC(=O)[C@H](CC(N)=O)NC(=O)[C@H](CC(=O)O)NC1=O [des2.1.0, SHA-Trp-dThr-Asp-Asn-dSer-dLys-dAsp-Lys] (HELM PEPTIDE1{D.N.[dS].[dK].[dD].K.[O=C([C@H](CCCCCS)N[*:1])[*:2]].W.[dT]}$PEPTIDE1,PEPTIDE1,1:R1-9:R2$$$V2.0) | 1409656 |
| CCCC[C@H]1NC(=O)[C@H](Cc2ccccc2)NC(=O)[C@H](CCCCCS)NC(=O)[C@@H](CCCNC(=N)N)NC(=O)[C@H](CC(=O)O)NC(=O)[C@@H](CO)NC(=O)[C@@H](C)NC(=O)[C@H](CCCCN)NC1=O [des4.3.1, SHA-Phe-dNle-Lys-dAla-dSer-Asp-dArg] (HELM PEPTIDE1{D.[dR].[O=C([C@H](CCCCCS)N[*:1])[*:2]].F.[CCCC[C@@H](N[*:1])C(=O)[*:2]].K.[dA].[dS]}$PEPTIDE1,PEPTIDE1,1:R1-8:R2$$$V2.0) | 1140869 |
| NCCCC[C@@H]1NC(=O)[C@@H]2CCCN2C(=O)[C@H](CC(N)=O)NC(=O)[C@H](CCCCCS)NC(=O)CNC(=O)[C@H](Cc2c[nH]c3ccccc23)NC(=O)[C@@H](CCCCN)NC(=O)[C@H](CCC(N)=O)NC1=O [des1.1.0, SHA-Asn-Pro-Lys-Gln-dLys-Trp-Gly] (HELM PEPTIDE1{G.[O=C([C@H](CCCCCS)N[*:1])[*:2]].N.P.K.Q.[dK].W}$PEPTIDE1,PEPTIDE1,1:R1-8:R2$$$V2.0) | 1472354 |

Query HDAC3 activity raw data (signal) for NCCCC[C@H]1NC(=O)[C@H](CCC(N)=O)NC(=O)[C@H](CCC(=O)O)NC(=O)[C@@H]2CCCN2C(=O)[C@H](CC(N)=O)NC(=O)[C@H](CCCCCS)NC(=O)CNC(=O)[C@H](Cc2c[nH]c3ccccc23)NC1=O [des1.1.1, SHA-Asn-Pro-Glu-Gln-dLys-Trp-Gly] (HELM PEPTIDE1{E.Q.[dK].W.G.[O=C([C@H](CCCCCS)N[*:1])[*:2]].N.P}$PEPTIDE1,PEPTIDE1,1:R1-8:R2$$$V2.0)
1315263

====

biological target: HDAC2 (Homo sapiens); construct: purchased Reaction Biology Corporation (assay run by the CRO); assay: HDAC2 inhibition, full IC50 measurement (Reaction Biology; fluorogenic p53 peptide RHKK(Ac)AMC); format: biochemical; settings: Conc. 3.33E-06 M, t2
Sequence (Q92769 whole entry): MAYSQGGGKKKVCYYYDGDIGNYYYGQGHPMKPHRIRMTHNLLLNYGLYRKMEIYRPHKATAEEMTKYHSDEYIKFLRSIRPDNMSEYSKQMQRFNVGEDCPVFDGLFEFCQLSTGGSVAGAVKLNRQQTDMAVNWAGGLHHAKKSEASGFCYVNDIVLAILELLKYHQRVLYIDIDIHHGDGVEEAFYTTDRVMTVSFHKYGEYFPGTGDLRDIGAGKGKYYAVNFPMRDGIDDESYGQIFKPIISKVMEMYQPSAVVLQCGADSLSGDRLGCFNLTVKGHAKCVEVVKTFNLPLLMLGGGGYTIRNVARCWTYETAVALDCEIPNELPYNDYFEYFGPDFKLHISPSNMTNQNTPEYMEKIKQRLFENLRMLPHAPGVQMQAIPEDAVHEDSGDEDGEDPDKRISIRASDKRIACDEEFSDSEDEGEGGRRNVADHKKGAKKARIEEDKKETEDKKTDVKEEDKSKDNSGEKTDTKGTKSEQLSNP
Peptide text beside a SMILES is read from it.
Property name: HDAC2 activity raw data (signal)
Write no unit; give the number alone.

Given CCCC[C@H]1NC(=O)[C@H](Cc2ccccc2)NC(=O)[C@H](CCCCCS)NC(=O)[C@@H](CCCNC(=N)N)NC(=O)[C@H](CC(=O)O)NC(=O)[C@@H](CO)NC(=O)[C@@H](C)NC(=O)[C@H](CCCCN)NC1=O [des4.3.1, SHA-Phe-dNle-Lys-dAla-dSer-Asp-dArg] (HELM PEPTIDE1{D.[dR].[O=C([C@H](CCCCCS)N[*:1])[*:2]].F.[CCCC[C@@H](N[*:1])C(=O)[*:2]].K.[dA].[dS]}$PEPTIDE1,PEPTIDE1,1:R1-8:R2$$$V2.0) , respond with its HDAC2 activity raw data (signal).
369190
